I'd appreciate it if you could supply pEC50 values for the items below.
Tested on: GCase (Homo sapiens, UniProt P04062)
Construct: endogenous in cells
Sequence (P04062 40-536): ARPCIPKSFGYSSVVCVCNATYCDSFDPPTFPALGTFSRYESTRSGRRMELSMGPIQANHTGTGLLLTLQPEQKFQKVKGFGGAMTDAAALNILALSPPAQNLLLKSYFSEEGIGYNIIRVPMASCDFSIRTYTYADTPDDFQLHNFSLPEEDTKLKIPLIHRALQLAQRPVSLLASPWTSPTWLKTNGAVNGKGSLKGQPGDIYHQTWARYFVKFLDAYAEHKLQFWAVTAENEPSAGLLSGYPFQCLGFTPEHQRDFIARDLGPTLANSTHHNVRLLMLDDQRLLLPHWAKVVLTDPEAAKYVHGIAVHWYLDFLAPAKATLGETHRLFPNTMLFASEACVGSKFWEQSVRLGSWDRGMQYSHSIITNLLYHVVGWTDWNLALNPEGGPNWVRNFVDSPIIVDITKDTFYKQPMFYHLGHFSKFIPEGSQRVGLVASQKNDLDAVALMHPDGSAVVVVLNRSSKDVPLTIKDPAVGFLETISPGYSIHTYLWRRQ
Experimental details: activation of GCase in a live cell PFB assay in HELA cells
pEC50: −log10 of the molar value.

Read off the recorded pEC50 for Fc1ccccc1-c1nnc(C2CCCN(c3cnc4ccccc4n3)C2)s1 (centres unmarked) 4.30 to 5.00

For O=C(c1ccc2cc[nH]c2c1)N1CCCC(c2nnc(-c3cccnc3C(F)(F)F)s2)C1 (centres unmarked) , write its pEC50. 4.30 to 5.00

Query pEC50 for FC(F)Cn1ncc2ncc(N3CCCC(c4nnc(-c5ccnc(C(F)(F)F)c5)s4)C3)nc21 (centres unmarked) > 5.00

Fill in reported pEC50 for this entry: FC(F)Cn1ncc2ncc(N3CCCC(c4nnc(-c5ccc(C(F)(F)F)nc5)s4)C3)nc21 (centres unmarked) > 5.00

Item CCn1ccc2ncc(N3CCCC(c4nnc(-c5ccccc5)s4)C3)nc21 (centres unmarked) : provide pEC50 4.30 to 5.00

Quick one: give measured pEC50 for FC(F)Cn1ncc2ncc(N3CCCC(c4nnc(-c5cccnc5C(F)(F)F)s4)C3)nc21 (centres unmarked) 4.30 to 5.00

Write down pEC50 measured for item Cc1nnc(C2CCCN(c3ncc4ccccc4n3)C2)s1 (centres unmarked) < 4.00

Using known records, supply pEC50 for c1ccc(-c2nnc(C3CCCN(c4cncc(-c5nncs5)n4)C3)s2)cc1 (centres unmarked) 4.30 to 5.00

Tell me pEC50 reported for Fc1ccccc1-c1nnc(C2CCCN(c3ncc4ccccc4n3)C2)s1 (centres unmarked) 4.30 to 5.00

Output pEC50 of FC(F)(F)Cn1ncc2ncc(N3CCCC(F)(c4nnc(-c5cccc(C(F)(F)F)n5)s4)C3)nc21 (centres unmarked) 4.30 to 5.00

Hello, please tell me recorded pEC50 for this one: FC(F)(F)Oc1ccccc1-c1nnc(C2(F)CCCN(c3cncc(-c4nncs4)n3)C2)s1 (centres unmarked) 4.30 to 5.00

Input FC(F)(F)Oc1ccccc1-c1nnc(C2CCCN(c3cncc(-c4nncs4)n3)C2)s1 (centres unmarked) , output reported pEC50. > 5.00

Report pEC50 for O=C(c1ccc2cc[nH]c2c1)N1CCCC(c2nnc(-c3ccccc3)s2)C1 (centres unmarked) 4.30 to 5.00

Give pEC50 for the following compound: c1ccc(-c2nnc(C3CCCN(c4ncc5ccccc5n4)C3)s2)cc1 (centres unmarked) 4.30 to 5.00

Supply pEC50 value. Item: FC(F)(F)c1cccc(-c2nnc(C3(F)CCCN(c4cnc5cnn(C6COC6)c5n4)C3)s2)n1 (centres unmarked) < 4.00

Quote pEC50 reported for FC(F)Cn1ncc2ncc(N3CCCC(c4nnc(-c5ccccc5)s4)C3)nc21 (centres unmarked) please. > 5.00

Return pEC50 (reported value) for this compound: FC(F)(F)c1cccc(-c2nnc(C3(F)CCCN(c4cnc5ccccc5n4)C3)s2)n1 (centres unmarked) 4.30 to 5.00

* * *

Tested on: GCase (Homo sapiens)
Construct: endogenous in cells
Experimental details: activation of GCase in a live cell PFB assay in HELA cells
Procedure: Exemplary compounds were evaluated for activation of GCase in a live cell PFB assay in HELA cells (essentially as described in Ysselstein et al., “LRRK2 kinase activity regulates lysosomal glucocerebrosidase in neurons derived from Parkinson's disease patients” Nature Communications (2019) 10:5570).
Experimental readout: EC50

Answer with reported EC50 of FC(F)Cn1ncc2ncc(N3CCCC(c4nnc(-c5cccc(C(F)(F)F)n5)s4)C3)nc21 (stereo not shown) 10 to 50 µM

Determine its reported EC50: FC(F)(F)c1cccc(-c2nnc(C3(F)CCCN(c4cncc(-c5nncs5)n4)C3)s2)n1 (stereo not shown) 10 to 50 µM

Name the recorded EC50 of the molecule listed here: c1ccc(-c2nnc(C3CCCN(c4cnc5ccccc5n4)C3)s2)cc1 (stereo not shown) 10 to 50 µM

Recall and state the measured EC50 for CCn1cnc2ncc(N3CCCC(c4nnc(-c5ccccc5)s4)C3)nc21 (stereo not shown) . < 10 µM
